Every entry's value here was drawn from ChEMBL document CHEMBL6182893.

System name: UniProt:O75762
Sequence (O75762 whole entry): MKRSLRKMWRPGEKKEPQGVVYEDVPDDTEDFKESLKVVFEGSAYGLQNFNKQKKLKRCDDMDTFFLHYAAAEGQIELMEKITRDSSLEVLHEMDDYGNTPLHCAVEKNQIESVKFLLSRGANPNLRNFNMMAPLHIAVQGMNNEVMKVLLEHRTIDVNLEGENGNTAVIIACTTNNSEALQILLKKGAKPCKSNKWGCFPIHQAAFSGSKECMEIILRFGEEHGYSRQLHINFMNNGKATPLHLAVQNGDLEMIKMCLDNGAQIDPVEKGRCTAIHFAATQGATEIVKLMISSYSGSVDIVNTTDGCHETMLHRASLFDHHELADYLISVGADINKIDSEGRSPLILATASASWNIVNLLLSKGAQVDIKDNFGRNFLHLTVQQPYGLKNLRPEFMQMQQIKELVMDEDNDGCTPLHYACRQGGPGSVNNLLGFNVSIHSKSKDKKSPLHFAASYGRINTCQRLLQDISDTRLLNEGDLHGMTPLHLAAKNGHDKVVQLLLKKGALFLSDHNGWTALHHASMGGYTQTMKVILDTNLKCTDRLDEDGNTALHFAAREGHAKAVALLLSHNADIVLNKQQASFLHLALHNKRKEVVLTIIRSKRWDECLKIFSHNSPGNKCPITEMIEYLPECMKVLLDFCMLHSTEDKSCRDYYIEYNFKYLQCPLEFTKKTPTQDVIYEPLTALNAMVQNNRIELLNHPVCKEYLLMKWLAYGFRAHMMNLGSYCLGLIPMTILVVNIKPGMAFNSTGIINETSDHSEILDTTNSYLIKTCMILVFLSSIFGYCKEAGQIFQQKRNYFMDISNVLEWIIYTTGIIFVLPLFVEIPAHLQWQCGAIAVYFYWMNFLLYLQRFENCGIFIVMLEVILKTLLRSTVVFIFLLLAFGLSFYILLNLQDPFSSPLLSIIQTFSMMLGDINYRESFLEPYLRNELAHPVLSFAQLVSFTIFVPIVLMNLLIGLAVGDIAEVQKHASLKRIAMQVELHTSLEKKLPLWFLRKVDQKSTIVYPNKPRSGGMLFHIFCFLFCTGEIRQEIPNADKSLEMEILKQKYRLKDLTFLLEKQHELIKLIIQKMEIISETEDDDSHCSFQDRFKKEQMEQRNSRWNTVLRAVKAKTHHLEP
Assay summary: Agonist activity at human TRPA1 expressed in HEK293T cells by whole cell patch clamp recordings
Assay type: cell-based
Measured quantity: pEC50
Note on units: pEC50 is unitless, being -log10 of a concentration expressed in mol/L.

Q: Look up and report measured pEC50 (UniProt:O75762) for the following molecule: `COCCCN(C(=O)CCl)c1nc(-c2ccc(OC)cc2)cs1`
Ans: 8.19
